Catalogue of sequences with associated self-aminoacylation
Tested on: biotinyl-Leu-oxazolone
method_description: self-aminoacylation, catalytic enhancement (BLO) (fold over background); higher = more active; k-Seq, kA / k0A0; sequences stand for … in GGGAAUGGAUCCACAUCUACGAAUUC…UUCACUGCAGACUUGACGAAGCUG
This sample holds only a part of the variants without activity.
// response body must contain only the number

Past entries and their recorded results:
1) AUUCAUCUGGGUCAUCGGGUG [Fam2.2 aminoacylation ribozyme variant]	10.3
2) AUUACCCUCGUCAUCGAGUGA [Fam2.1 aminoacylation ribozyme variant]	3.09
3) AUAACCCUGGUCAUCGAGCGA [Fam2.1 aminoacylation ribozyme variant]	2.88
4) CCACACUUCAAGCAAGCAGUC [Fam1B.1 aminoacylation ribozyme variant]	0.861
5) UUAACCCUGGUCAUCGAGUGA [Fam2.1 aminoacylation ribozyme variant]	12
6) UUUACCCUGGUCAUCCAGUGA [Fam2.1 aminoacylation ribozyme variant]	4.72

Attention now turns to another entry.
Form: Entry = AUUACCCGGUUCAUCGAGUGA [Fam2.1 aminoacylation ribozyme variant] | System = biotinyl-Leu-oxazolone | self-aminoacylation = ____
6.51

* * *

System: biotinyl-Met-oxazolone
method_description: self-aminoacylation, catalytic enhancement (BMO) (fold over background); higher = more active; k-Seq, kA / k0A0; sequences stand for … in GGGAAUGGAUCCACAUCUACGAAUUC…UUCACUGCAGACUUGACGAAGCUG
Variants at the floor of the assay were thinned out.
Catalogue of sequences with associated self-aminoacylation

1. CUACUUCUAACAAUCGCUCUG [Fam1A.1 aminoacylation ribozyme variant]	0.553
2. AAGUUUGCUAAUAGUCGCUAA [Fam3.1 aminoacylation ribozyme variant]	1.13

# query: self-aminoacylation of entry AUUACCCUGGUCCUCUAGUGA [Fam2.1 aminoacylation ribozyme variant]
9.46

* * *

System: biotinyl-Trp-oxazolone
method_description: self-aminoacylation, catalytic enhancement (BWO) (fold over background); higher = more active; k-Seq, kA / k0A0; sequences stand for … in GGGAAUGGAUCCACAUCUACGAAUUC…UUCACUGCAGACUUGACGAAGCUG
Variants at the floor of the assay were thinned out.
Catalogue of sequences with associated self-aminoacylation

Past entries and their recorded results:
1. CUACUUUAAACGAUCGGUCUG [Fam1A.1 aminoacylation ribozyme variant]	0.759
2. CAUCUUCAAACAAUCGGUCUG [Fam1A.1 aminoacylation ribozyme variant]	24.5
3. CUGCUUCAAACAAUCAGUCUG [Fam1A.1 aminoacylation ribozyme variant]	12.5
4. UGUACCCUGGUCAUCGAGUGA [Fam2.1 aminoacylation ribozyme variant]	8.02
5. CUACUCGAAACAAUCGGUCUG [Fam1A.1 aminoacylation ribozyme variant]	0.979

Form: Entry = AGUCACCUUGGUCAUCGGGUG [Fam2.2 aminoacylation ribozyme variant] | System = biotinyl-Trp-oxazolone | self-aminoacylation = ____
5.71

Form: Entry = AUUCACCUAGCUCAUCCGGUG [Fam2.2 aminoacylation ribozyme variant] | System = biotinyl-Trp-oxazolone | self-aminoacylation = ____
3.68

Form: Entry = ACUACCCUGGUCAUCGAGUAA [Fam2.1 aminoacylation ribozyme variant] | System = biotinyl-Trp-oxazolone | self-aminoacylation = ____
8

Form: Entry = AUUACCCUGGUCAUAGAGUGA [Fam2.1 aminoacylation ribozyme variant] | System = biotinyl-Trp-oxazolone | self-aminoacylation = ____
11.9

Form: Entry = CCACACUUAAAGGAAUCGGUC [Fam1B.1 aminoacylation ribozyme variant] | System = biotinyl-Trp-oxazolone | self-aminoacylation = ____
0.763

Form: Entry = AUUCACCUAGGUGAUCGGGGG [Fam2.2 aminoacylation ribozyme variant] | System = biotinyl-Trp-oxazolone | self-aminoacylation = ____
7.47
